# Tested on: CCRIS mutagenicity, Ames/micronucleus/aberration tests
# Protocol notes: CCRIS mutagenicity studies
# Experimental parameters: Test System: AMES SALMONELLA TYPHIMURIUM; Strain/Indicator: TA1537; Metabolic Activation: HAMSTER, LIVER, S-9, AROCLOR 1254 (10%); Method: PREINCUBATION
Calls of active or inactive are those of the source. How the calls were made is not given here.
Thanks in advance; please answer with one of these: Yes (active), No (inactive)

Worked examples, 3 molecules total:
[[record]]
molecule = "O=C1c2c(O)ccc([N+](=O)[O-])c2C(=O)c2c([N+](=O)[O-])ccc(O)c21"
cat = "Yes"

[[record]]
molecule = "CC(=O)c1ccccc1[N+](=O)[O-]"
cat = "No"

[[record]]
molecule = "C=CC(=O)OCC(Br)CBr (stereo not drawn)"
cat = "No"


stdin: Test call, this molecule: CC(C)(C)C(=O)C1C(=O)c2ccccc2C1=O
stdout: No

stdin: // query: CC(=O)[O][Hg][c]1ccccc1
stdout: No

stdin: // query: COc1ccc(C(=O)Nc2ccccc2)cc1[N+](=O)[O-]
stdout: Yes

stdin: // query: NCCNCCO
stdout: No

stdin: // query: NCCCNCCCN
stdout: No

----------
# System: CCRIS mutagenicity, Ames/micronucleus/aberration tests
# Protocol notes: CCRIS mutagenicity studies
# Experimental parameters: Test System: AMES SALMONELLA TYPHIMURIUM; Strain/Indicator: TA98; Metabolic Activation: HAMSTER, LIVER, S-9, AROCLOR 1254; Method: STANDARD PLATE
# Source text: The CCRIS database contains chemical records with carcinogenicity, mutagenicity, tumor promotion, and tumor inhibition test results. It was developed by the National Cancer Institute (NCI). Data are derived from studies cited in primary journals, current awareness tools, NCI reports, and other sources. Test results have been reviewed by experts in carcinogenesis and mutagenesis. CCRIS provides historical information from the years 1985 - 2011. It is no longer updated. […]
Calls of active or inactive are those of the source. The rule behind the calls is not given here.
Observation type: mutagenic call

[[record]]
compound = "C=C(C)C(C)=O"
result = "inactive; negative"

[[record]]
compound = "Nc1ccc(Cl)cc1"
result = "active; positive"

[[record]]
compound = "CCCO"
result = "inactive; negative"

[[record]]
compound = "CCOC(=O)CC(=O)CCl"
result = "inactive; negative"


stdin: Can you share its mutagenic call? I mean this compound: O=C1C(=O)c2cccc3cccc1c23
stdout: inactive; negative

stdin: // query: O=C1C=CC(=O)CC(=O)C1
stdout: inactive; negative

stdin: // query: Nc1ccc(Cl)c(N)c1
stdout: active; positive

stdin: // query: O=c1[nH]cnc2c1ncn2[C@H]1CC[C@@H](CO)O1
stdout: inactive; negative

stdin: // query: O=C(O)c1cc(=O)c2c(OCC(O)COc3cccc4oc(C(=O)O)cc(=O)c34)cccc2o1
stdout: inactive; negative

stdin: // query: COc1cc(/C=C/C(=O)CC(=O)/C=C/c2ccc(O)c(OC)c2)ccc1O
stdout: inactive; negative

----------
# System: CCRIS mutagenicity, Ames/micronucleus/aberration tests
# Protocol notes: CCRIS mutagenicity studies
# Experimental parameters: Test System: AMES SALMONELLA TYPHIMURIUM; Strain/Indicator: TA100; Metabolic Activation: NONE; Method: STANDARD PLATE
The source made the active and inactive calls. How the calls were made is not given here.
Thanks in advance; please answer with one of these: active, inactive

Worked examples, 10 compounds total:
[[record]]
compound = "CCN(CC)N=O"
cat = "inactive"

[[record]]
compound = "CCN(CCCl)CCCNc1c2ccc(Cl)cc2nc2ccc(OC)cc12"
cat = "active"

[[record]]
compound = "Cc1ccncc1"
cat = "inactive"

[[record]]
compound = "Cn1c2ccccc2c(=O)c2c(O)cc3c(c21)CC(C(C)(O)CCl)O3 (stereo not drawn)"
cat = "active"

[[record]]
compound = "C/C=C/C=C/C=O"
cat = "inactive"

[[record]]
compound = "CN(C)CCCNc1c2ccccc2nc2c(N(C)C)ccc([N+](=O)[O-])c12"
cat = "active"

[[record]]
compound = "C#C[C@]1(OC(=O)CCCCCC)CC[C@H]2[C@@H]3CCC4=CC(=O)CC[C@@H]4[C@H]3CC[C@@]21C"
cat = "inactive"

[[record]]
compound = "Cc1ccc(N=Nc2c(O)ccc3ccccc23)c(S(=O)(=O)O)c1"
cat = "inactive"

[[record]]
compound = "Brc1ccc2c(c1)[C@H]1O[C@H]1[C@H]1CCCC[C@H]21"
cat = "inactive"

[[record]]
compound = "CCN(CC)c1cc(NC(C)=O)c(N=Nc2ccc([N+](=O)[O-])cc2)cc1OC"
cat = "inactive"


Note: attention shifts to another entry.
stdin: Test call, this compound: CC\C=C/C=C\C=C/C=C\C=C/OCC(O)CO (stereo not drawn)
stdout: active

----------
# Tested on: CCRIS mutagenicity, Ames/micronucleus/aberration tests
# Protocol notes: CCRIS mutagenicity studies
# Experimental parameters: Test System: AMES SALMONELLA TYPHIMURIUM; Strain/Indicator: TA102; Metabolic Activation: NONE; Method: STANDARD PLATE
Calls of active or inactive are those of the source. The rule behind the calls is not given here.
Thanks in advance; please answer with one of these: active, inactive

Worked examples, 6 compounds total:
[[record]]
compound = "CCCCCCCC/C=C\\CCCCCCCCCCCC(=O)NCCCCCCCCCCCCCCCCCC"
cat = "inactive"

[[record]]
compound = "CN(C)c1ccc(C(=C2C=CC(=[N+](C)C)C=C2)c2ccccc2)cc1"
cat = "inactive"

[[record]]
compound = "COc1c(Cl)cc2c(c1OC)N(C)[C@@H]1N3C(=O)[C@@]4(C)SS[C@@]3(C(=O)N4C)[C@H](O)[C@]21O"
cat = "inactive"

[[record]]
compound = "O=C(CCBr)N1CCN(C(=O)CCBr)CC1"
cat = "inactive"

[[record]]
compound = "Cn1c([N+](=O)[O-])cnc1C1NC(CO)(CO)CO1 (stereo not drawn)"
cat = "active"

[[record]]
compound = "COCCO"
cat = "inactive"


stdin: Test call, this compound: CCn1cc(C(=O)O)c(=O)c2cc(F)c(N3CCNCC3)nc21
stdout: active

stdin: // query: CC(C)Cc1ccc(C(C)C(=O)O)cc1 (stereo not drawn)
stdout: inactive

stdin: // query: NC(=O)N/N=C/c1ccc([N+](=O)[O-])o1
stdout: active

stdin: // query: COc1cc([C@H]2OC[C@H]3[C@@H]2CO[C@@H]3c2cc(OC)c(OC)c(OC)c2)cc(OC)c1OC
stdout: inactive

stdin: // query: O=C1CN(/N=C/c2ccc([N+](=O)[O-])o2)C(=O)N1
stdout: active

stdin: // query: CC(C)(C)S(=O)(=O)C[C@@H](Cc1ccccc1)C(=O)N[C@@H](Cc1cnc[nH]1)C(=O)N[C@@H](CC1CCCCC1)[C@@H](O)[C@@H](O)C1CC1
stdout: inactive

stdin: // query: OC[C@H]1O[C@@H](n2cnc3c(=S)nc[nH]c32)[C@H](O)[C@@H]1O
stdout: inactive

stdin: // query: CCOC(C)C(=O)C(O)O (stereo not drawn)
stdout: active

----------
# System: CCRIS mutagenicity, Ames/micronucleus/aberration tests
# Protocol notes: CCRIS mutagenicity studies
# Experimental parameters: Test System: AMES SALMONELLA TYPHIMURIUM; Strain/Indicator: TA98; Metabolic Activation: NONE; Method: PREINCUBATION
The source made the active and inactive calls. No rule for the calls is given here.
Observation type: mutagenic call

Consider the worked cases shown below.
[[record]]
compound = "NS(=O)(=O)c1cc(C(=O)O)c(NCc2ccco2)cc1Cl"
result = "inactive; negative"

[[record]]
compound = "CC1(C)CC(N)CC(C)(CN)C1 (stereo not drawn)"
result = "inactive; negative"

[[record]]
compound = "Oc1cc2c(cc1O)[C@@H]1c3ccc(O)c(O)c3OC[C@]1(O)C2"
result = "inactive; negative"

[[record]]
compound = "CC(O)CN(CC(C)O)CC(C)O (stereo not drawn)"
result = "inactive; negative"

[[record]]
compound = "Nc1ccc(Oc2ccc(N)c(N)c2)cc1"
result = "inactive; negative"


stdin: Can you share its mutagenic call? I mean this compound: CC(C)(C)NC(=O)C=Cc1ccc([N+](=O)[O-])o1
stdout: active; positive

stdin: // query: CC1(C)C(=O)N(Cl)C(=O)N1Cl
stdout: inactive; negative

stdin: // query: Nc1ccc2nc3ccccc3nc2c1
stdout: inactive; negative

----------
# Tested on: CCRIS mutagenicity, Ames/micronucleus/aberration tests
# Protocol notes: CCRIS mutagenicity studies
# Experimental parameters: Test System: MOUSE LYMPHOMA; Strain/Indicator: L5178Y (TK+/TK-); Metabolic Activation: RAT, LIVER, S-9, AROCLOR 1254; Method: SUSPENSION/PLATE
Calls of active or inactive are those of the source. How the calls were made is not given here.
Thanks in advance; please answer with one of these: True (active), False (inactive)

Worked examples, 5 compounds total:
[[record]]
molecular_string = "COc1ccc(N)cc1"
cat = "True"

[[record]]
molecular_string = "O=C1C=CC(=O)CC(=O)C1"
cat = "False"

[[record]]
molecular_string = "O=C(O)c1cc(=O)c2c(OCC(O)COc3cccc4oc(C(=O)O)cc(=O)c34)cccc2o1"
cat = "False"

[[record]]
molecular_string = "Nc1ccccc1Cl"
cat = "True"

[[record]]
molecular_string = "Cc1ccccc1C#N"
cat = "True"


stdin: Test call, this compound: C=CC(=O)OC
stdout: True

Reference for the values: PubChem BioAssay AID1259407
